Test system: RSV
Experiment: RSV antiviral assay (Renilla luciferase reporter virus rA2-Rluc in A549 cells)
Format: cell-based, respiratory syncytial virus
Details: Selectivity index = CC50/IC50
value-kind: Selectivity Index
Please reply with the value in numeric form only.

compound	Selectivity Index
CC(=O)OC1CC2(C)C(O)C(C3CC(=O)C(C)=CC3O)=CCC2C2(C)CCCC(C)(C)C12 (stereo not drawn) [Compound 3, Suberitenone F]	3.7
CC(=O)OC1CC2(C)C=C(C3CC(=O)C(C)=CC3O)CCC2C2(C)CCCC(C)(C)C12 (stereo not drawn) [Compound 10, suberitenone A]	4.3
COC1C(C)C(=O)CC(C2(O)CCC3C(C)(CC(OC(C)=O)C4C(C)(C)CCCC43C)C2)C1O (stereo not drawn) [Compound 5, Suberitenone H]	4.7
CC(=O)O[C@@H]1C[C@@]2(C)C(=O)C([C@H]3CC(=O)C(C)=C[C@H]3O)=CCC2[C@@]2(C)CCCC(C)(C)C12 (stereo partly drawn) [Compound 4, Suberitenone G]	3.7
CC(=O)OC1CC2(C)CC(O)(C3CC(=O)C(C)=CC3O)CCC2C2(C)CCCC(C)(C)C12 (stereo not drawn) [Compound 11, suberitenone B]	21.1

Note: attention shifts to another entry.
Query :: Quick one: give measured Selectivity Index for CC(=O)OC1CC2(C)C(CCC3(C4CC(=O)C(C)=CC4O)OC23)C2(C)CCCC(C)(C)C12 (stereo not drawn) [Compound 2, Suberitenone E]
Result :: 4.3

// provenance: paper PMC9964336
